measured-target: Polyadenylate-binding protein 1 (Homo sapiens) (UniProt P11940)
Sequence (P11940 whole entry, looked up): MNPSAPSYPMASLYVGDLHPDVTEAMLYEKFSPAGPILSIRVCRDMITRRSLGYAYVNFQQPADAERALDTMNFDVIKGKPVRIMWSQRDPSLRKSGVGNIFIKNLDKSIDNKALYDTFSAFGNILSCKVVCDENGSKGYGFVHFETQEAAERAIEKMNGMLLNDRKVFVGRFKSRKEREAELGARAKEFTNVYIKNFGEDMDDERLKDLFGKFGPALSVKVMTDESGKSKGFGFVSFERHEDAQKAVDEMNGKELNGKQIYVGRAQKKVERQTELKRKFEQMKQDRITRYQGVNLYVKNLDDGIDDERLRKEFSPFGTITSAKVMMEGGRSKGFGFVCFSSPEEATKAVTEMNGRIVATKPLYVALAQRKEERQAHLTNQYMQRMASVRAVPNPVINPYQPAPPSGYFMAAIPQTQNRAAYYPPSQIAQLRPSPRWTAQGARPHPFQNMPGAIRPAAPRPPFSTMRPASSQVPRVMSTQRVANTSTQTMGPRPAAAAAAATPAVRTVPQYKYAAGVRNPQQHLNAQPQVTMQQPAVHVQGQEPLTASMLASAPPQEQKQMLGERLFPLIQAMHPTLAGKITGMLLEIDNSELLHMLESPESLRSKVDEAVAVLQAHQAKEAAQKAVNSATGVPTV
experiment-summary: PABP poly(A) RNA binding inhibitors, primary screen, biochemical, fluorescence polarization, uHTS (AID 2014);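 also: calls also rest on retests at 20 µM and on dose response follow-up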
measurement-setup: at 35 µM
Screen size: about 290,000 compounds; about 3,000 (1%) were called active. No rule for the calls is given here. This is one part of a sample in which actives are shown more often than they occur.
Please state which outcome applies, choosing from 1 = active, -1 = inactive

query: Which result was noted for this compound in the test: `O=C(NCc1ccccn1)c1cc(Br)ccc1Cl`
result: -1

query: Which result was noted for this compound in the test: COc1ccccc1NC(=O)c1cc(N2C(=O)C3C4CCC(C4)C3C2=O)ccc1Cl (stereo unspecified)
result: -1

query: Which result was noted for this compound in the test: `Cc1cc(C)c2nc(-c3ccco3)cc(C(=O)O)c2c1`
result: 1

query: Which result was noted for this compound in the test: `Cc1cccc(CCNS(=O)(=O)c2ccc3c(c2)NC(=O)CO3)c1`
result: -1

query: Which result was noted for this compound in the test: `O=C(NCc1ccccn1)c1ccc2nc(-c3ccco3)c(-c3ccco3)nc2c1`
result: 1

query: Which result was noted for this compound in the test: `CC(=O)Nc1ccc(/C=N/Nc2ccc(C(=O)c3c(C)cc4ccccn34)cc2[N+](=O)[O-])cc1`
result: -1

query: Which result was noted for this compound in the test: CC1CSc2nnc(CCc3ccccc3)n21 (stereo unspecified)
result: -1

query: Which result was noted for this compound in the test: `Cc1cc(O)c(C(=O)/C=C/c2c(F)c(F)c(F)c(F)c2F)c(=O)o1`
result: -1

query: Which result was noted for this compound in the test: `O=C(OCc1cc(Cl)ccc1OC(F)F)c1cccnc1`
result: 1

query: Which result was noted for this compound in the test: `Cc1cc2ccccn2c1C(=O)c1cccc(F)c1`
result: -1

query: Which result was noted for this compound in the test: Cc1ccc(C(C[N+](=O)[O-])c2c(C)cc3ccccn23)cc1 (stereo unspecified)
result: 1

---

Consider the following compounds; for each one, report its inhibition.
measured-target: Polyadenylate-binding protein 1 (Homo sapiens)
experiment-summary: PABP poly(A) RNA binding inhibitors, primary screen, biochemical, fluorescence polarization, uHTS (AID 2014);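 also: calls also rest on retests at 20 µM and on dose response follow-up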
measurement-setup: at 35 µM, stronger effect = higher value
Screen size: about 290,000 compounds; about 3,000 (1%) were called active. Only a selection was taken, and actives are over-represented in it overall.
All answers are understood in %, so give the number only.

query: Check the records and state inhibition for `CCc1ccccc1NC(=O)c1cc(-c2ccc3c(c2)OCO3)on1`
result: 3.5

query: Check the records and state inhibition for CN(C(=O)CN1C(=O)S/C(=C\c2ccccc2F)C1=O)C1CCS(=O)(=O)C1 (stereo unspecified)
result: 11.1

query: Check the records and state inhibition for `Fc1ccccc1N=C1Nc2cccc3cccc1c23`
result: -10.8

query: Check the records and state inhibition for COc1ccccc1/C=C/C(=O)NC1CC2CCC1C2 (stereo unspecified)
result: 13.8

query: Check the records and state inhibition for `Cc1ccc(N=C2NC(=O)/C(=C/C=C/c3ccco3)S2)cc1C`
result: -2.9

query: Check the records and state inhibition for `CNC(=O)CN1C(=O)NC(c2ccccc2)(c2ccccc2)C1=O`
result: -6.2

query: Check the records and state inhibition for C=CCN1C=C2C(=O)C(C)(OC(=O)CCc3ccccc3)C(=O)C=C2C=C1c1ccc(C#N)cc1 (stereo unspecified)
result: 38.3

query: Check the records and state inhibition for `Cc1cccc(N=C2NC(=O)/C(=C/c3cn(C)c4ccccc34)S2)c1`
result: -3.5

query: Check the records and state inhibition for `CC(C)(C)NC(=O)CSc1nnc(NC(=O)CCc2ccccc2)s1`
result: -1.7

query: Check the records and state inhibition for `CC(C)C[C@@H](CO)N1CCN(Cc2ccc(O)cc2)CCC1=O`
result: 1.4

query: Check the records and state inhibition for `COc1ccccc1C1=Nc2cccc3cccc(c23)N1`
result: 65.3

Values compiled from PubChem BioAssay AID2014.
